Molecular target: P2Y12 receptor (Homo sapiens, UniProt Q9H244)
Construct: endogenous in cells
Sequence (Q9H244 whole entry): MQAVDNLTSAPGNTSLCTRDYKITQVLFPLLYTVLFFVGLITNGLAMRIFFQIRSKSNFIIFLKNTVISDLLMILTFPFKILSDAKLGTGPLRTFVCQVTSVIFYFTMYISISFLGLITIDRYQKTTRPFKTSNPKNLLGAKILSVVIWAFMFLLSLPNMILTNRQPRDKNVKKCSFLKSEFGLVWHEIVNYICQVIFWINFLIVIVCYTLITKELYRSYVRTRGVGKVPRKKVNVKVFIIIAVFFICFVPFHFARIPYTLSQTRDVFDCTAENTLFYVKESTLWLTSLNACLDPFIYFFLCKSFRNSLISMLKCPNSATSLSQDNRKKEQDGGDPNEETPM
Experiment: platelet ADP receptor binding assay (ARB): inhibition of [3H]2-MeS-ADP binding to platelets
Conditions: [3H]2-MeS-ADP binding to apyrase-washed human platelets
pIC50: −log10 of the molar value.
Assay metric: pIC50

The following compounds have reported results that may help.
CNc1cc2c(cc1F)C(=O)N(c1ccc(C(=O)NC(c3nnn(C)n3)c3ccc(Cl)s3)cc1)CO2 (stereo not shown) [Compound 74]: 6.30 to 7.30
CNc1cc2c(cc1F)C(=O)N(c1ccc(C(=O)NC(C(=O)O)c3ccccc3)cc1)CO2 (stereo not shown) [Compound 58]: 6.30 to 7.30
CNc1cc2[nH]c(=O)n(-c3ccc(C(=O)NC(c4nnn[nH]4)c4ccccc4Cl)cc3)c(=O)c2cc1F (stereo not shown) [Compound 28]: < 6.30
NC(=O)c1cn(-c2ccc(C(=O)NC(C(=O)O)c3ccc(Cl)s3)cc2)c(=O)c2ccccc12 (stereo not shown) [Compound 99]: < 6.30
CNc1cc2[nH]c(=O)n(-c3ccc(C(=O)NC(c4cccc(C(F)(F)F)c4)c4nnn[nH]4)cc3)c(=O)c2cc1F (stereo not shown) [Compound 34]: < 6.30

Read off the recorded pIC50 for O=C(NCc1ccc(Cl)s1)c1ccc(-n2c(=O)[nH]c3cc(NCc4ccc(F)cc4)ccc3c2=O)cc1 [Compound 1]
6.30 to 7.30

Please list pIC50 recorded for the compound CCc1ccc2c(c1)C(=O)N(c1ccc(C(=O)NC(C(=O)O)c3ccc(Cl)s3)cc1)CO2 (stereo not shown) [Compound 72]
< 6.30

* * *

Biological target: P2Y12 receptor (Homo sapiens)
Construct: endogenous in cells
Assay: platelet ADP receptor binding assay (ARB): inhibition of [3H]2-MeS-ADP binding to platelets
Settings: [3H]2-MeS-ADP binding to apyrase-washed human platelets
Assay metric: IC50

Solved cases below.
CNc1cc2[nH]c(=O)n(-c3ccc(C(=O)NC(C(=O)O)c4ccc(Cl)s4)c(Cl)c3)c(=O)c2cc1F (stereo not shown): 50 to 500 nM
NC(=O)c1ccc2c(=O)n(-c3ccc(C(=O)NC(C(=O)O)c4ccc(Cl)s4)cc3)ccc2c1 (stereo not shown): > 500 nM
CNc1cc2[nH]c(=O)n(-c3ccc(C(=O)NC(C(=O)O)c4ccc(Cl)cc4)cc3)c(=O)c2cc1F (stereo not shown): > 500 nM

Next molecule, please.
Specify reported IC50 for the molecule shown: CNc1cc2c(cc1F)C(=O)N(c1ccc(C(=O)NC(Cc3cccs3)C(=O)O)cc1)CO2 (stereo not shown)
50 to 500 nM

* * *

Target: P2Y12 receptor (Homo sapiens, UniProt Q9H244)
Construct: endogenous in cells
Assay: platelet ADP receptor binding assay (ARB): inhibition of [3H]2-MeS-ADP binding to platelets
Settings: [3H]2-MeS-ADP binding to apyrase-washed human platelets
Catalogue of IC50 readings, one per entry.

Below, 4 compounds whose answers are already recorded.
CNc1cc2[nH]c(=O)n(-c3ccc(C(=O)NC(c4noc(=O)[nH]4)c4ccc(Cl)s4)cc3OC)c(=O)c2cc1F (stereo not drawn) [Compound 53]: 50 to 500 nM
CNc1cc2c(cc1F)C(=O)N(c1ccc(C(=O)NC(C(=O)O)c3cccs3)cc1)CO2 (stereo not drawn) [Compound 63]: > 500 nM
CNc1cc2c(cc1F)C(=O)N(c1ccc(CC(=O)NC(C(=O)N3CCCC3)c3ccc(Cl)s3)cc1)CO2 (stereo not drawn) [Compound 121]: > 500 nM
CNc1cc2[nH]c(=O)n(-c3ccc(C(=O)NC(c4cccc(Cl)c4)c4nnn[nH]4)cc3)c(=O)c2cc1F (stereo not drawn) [Compound 11]: 50 to 500 nM

# return recorded IC50 for entry CNc1cc2[nH]c(=O)n(-c3ccc(C(=O)NC(c4nnn[nH]4)c4ccc(Cl)s4)cc3)c(=O)c2cc1F (stereo not drawn) [Compound 7]
< 50 nM

Tell me measured IC50 for CNc1cc2c(cc1F)C(=O)N(c1ccc(CC(=O)NC(C(=O)OC)c3ccc(Cl)s3)cc1)CO2 (stereo not drawn) [Compound 118] please.
50 to 500 nM

Note down IC50 recorded for CC(C)Oc1ccc2[nH]c(=O)n(-c3ccc(C(=O)NC(C(=O)O)c4ccc(Cl)s4)cc3)c(=O)c2c1 (stereo not drawn) [Compound 38]
> 500 nM

# return recorded IC50 for input CNc1cc2c(=O)n(-c3ccc(C(=O)NC(c4nnn[nH]4)c4ccc(Cl)s4)cc3)c(=O)[nH]c2cc1F (stereo not drawn) [Compound 49]
> 500 nM

Kindly indicate its recorded IC50. Item: CNc1cc2[nH]c(=O)n(-c3ccc(C(=O)NC(C(=O)O)c4cccs4)cc3)c(=O)c2cc1F (stereo not drawn) [Compound 8]
> 500 nM

Tell me IC50 reported for COc1cccc2c1OCN(c1ccc(C(=O)NC(C(=O)O)c3ccc(Cl)s3)cc1)C2=O (stereo not drawn) [Compound 68]
> 500 nM

For the compound CNc1cc2[nH]c(=O)n(-c3ccc(C(=O)NC(Cc4cccs4)C(=O)O)cc3)c(=O)c2cc1F (stereo not drawn) [Compound 9] , give its measured IC50 value.
> 500 nM

Name the recorded IC50 of the item CNc1cc2c(cc1F)C(=O)N(c1ccc(C(=O)NC(c3ccc(Cl)s3)c3nccs3)cc1)CO2 (stereo not drawn) [Compound 82] in your answer.
50 to 500 nM

Write down IC50 measured for item N#Cc1ccc2c(=O)n(-c3ccc(C(=O)NC(C(=O)O)c4cccs4)cc3)ccc2c1 (stereo not drawn) [Compound 95]
> 500 nM

Using the record for CNc1cc2c(cc1F)C(=O)N(c1ccc(C(=O)NC(Cc3ccc(Cl)s3)C(=O)O)cc1)CO2 (stereo not drawn) [Compound 57] , state its measured IC50.
50 to 500 nM

Given O=C(Nc1ccc(-n2c(=O)[nH]c3cc(NCc4ccc(F)cc4)ccc3c2=O)cc1)NC(C(=O)O)c1cccs1 (stereo not drawn) [Compound 108] , respond with its IC50.
50 to 500 nM

Name the recorded IC50 of the item Cc1ccc2c(c1)OCN(c1ccc(C(=O)NC(C(=O)O)c3ccc(Cl)s3)cc1)C2=O (stereo not drawn) [Compound 69] in your answer.
> 500 nM

Please look at this compound and report its IC50: CNc1cc2[nH]c(=O)n(-c3ccc(CNC(CC(=O)O)c4ccc(Cl)s4)cc3)c(=O)c2cc1F (stereo not drawn) [Compound 104]
50 to 500 nM

Entry O=C(NC(C(=O)O)c1ccc(Cl)s1)c1ccc(N2COc3cc(NCc4ccc(F)cc4)ccc3C2=O)cc1 (stereo not drawn) [Compound 84] needs its IC50 filled in; supply it.
> 500 nM

Tell me its IC50 given CNc1cc2[nH]c(=O)n(-c3ccc(CN(CC(=O)O)C(=O)c4ccc(Cl)s4)cc3)c(=O)c2cc1F [Compound 103] as the entry.
> 500 nM

Identify the reported IC50 for the following entry. CNc1cc2c(cc1F)C(=O)N(c1ccc(C(=O)N[C@@H](C(=O)O)c3ccc(Cl)s3)cc1)CO2 [Compound 62]
< 50 nM

Please report IC50 for the following compound: O=C(NC(C(=O)O)c1ccc(Cl)s1)c1ccc(-n2cc(Br)c3ccccc3c2=O)cc1 (stereo not drawn) [Compound 102]
> 500 nM

Answer with the recorded IC50 for the compound listed here: CNc1cc2c(cc1F)C(=O)N(c1ccc(C(=O)NC(c3nnn[nH]3)c3ccc(Cl)s3)cc1)CO2 (stereo not drawn) [Compound 54]
< 50 nM

Report IC50, nothing else, for this compound: CNc1cc2[nH]c(=O)n(-c3ccc(NC(=O)NC(C(=O)O)c4ccc(Cl)s4)cc3)c(=O)c2cc1F (stereo not drawn) [Compound 110]
> 500 nM

Please report IC50 for the following compound: CNc1cc2[nH]c(=O)n(-c3ccc(C(=O)NC(c4noc(=O)[nH]4)c4ccc(Cl)s4)cc3)c(=O)c2cc1F (stereo not drawn) [Compound 21]
< 50 nM

Give reported IC50 value for CNc1cc2c(cc1F)C(=O)N(c1ccc(C(=O)NC(c3nnn[nH]3)c3ccc(C)s3)cc1)CO2 (stereo not drawn) [Compound 61]
< 50 nM
